System: Blumeria graminis f. sp. tritici
Assay: Test C: test suspension sprayed on wheat seedlings, inoculated next day with Blumeria graminis f. sp. tritici (wheat powdery mildew); visual disease rating (100 = 100% disease control, 0 = no control; dash = not tested)
Assay type: in vivo
Conditions: 50 ppm
measurement-label: Test C disease control rating (%)
Numbers only here, please. The scale is %.

# example entries with known answers
- COc1ccc(Cl)c(-c2nn(C)c(=O)c(Cl)c2-c2ccccc2Cl)c1: 96
- COc1cc(F)cc(-c2nn(C)c(=O)cc2-c2c(F)cccc2F)c1Cl: 93
- CCc1c(-c2ccc(F)cc2Cl)c(-c2c(Cl)c(OC)cc(OC)c2Br)nn(C)c1=O: 69
- COc1cc(C#N)cc(-c2nn(C)c(=O)c(OC)c2-c2ccc(F)cc2Cl)c1: 97
- COc1cc(-c2nn(C)c(=O)cc2-c2ccc(F)cc2Cl)cc(OC)c1Cl: 0

Quickly give me recorded Test C disease control rating for Cn1nc(-c2ccc(F)cc2Cl)c(-c2ccc(F)cc2Cl)c(CCl)c1=O 76

Quickly give me recorded Test C disease control rating for COc1c(-c2ccc(F)cc2Cl)c(-c2cc(C#N)ccc2Cl)nn(C)c1=O 99

Quickly give me recorded Test C disease control rating for COc1cc(F)c(Br)c(-c2nn(C)c(=O)c(Cl)c2-c2ccc(F)cc2Cl)c1 99

Quickly give me recorded Test C disease control rating for COc1cc(C#N)cc(-c2nn(C)c(=O)c(Cl)c2-c2ccc(F)cc2Cl)c1 94
